target: EPHB2 (UniProt P29323); assay: phosphorylation enrichment, bacterial display (enrichment ratio); higher = better substrate or ligand; peptides without Tyr show the background;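 also: 11-residue human phosphosite peptides and single-mutation variants displayed on the E. coli surface, counted by deep sequencing, each peptide's frequency after selection divided by its frequency in the unselected input library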;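 also: frequency after pTyr selection over input frequency; kinase dosed for 20-30% of maximal phosphorylation in three min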
Sequence (P29323 whole entry, looked up): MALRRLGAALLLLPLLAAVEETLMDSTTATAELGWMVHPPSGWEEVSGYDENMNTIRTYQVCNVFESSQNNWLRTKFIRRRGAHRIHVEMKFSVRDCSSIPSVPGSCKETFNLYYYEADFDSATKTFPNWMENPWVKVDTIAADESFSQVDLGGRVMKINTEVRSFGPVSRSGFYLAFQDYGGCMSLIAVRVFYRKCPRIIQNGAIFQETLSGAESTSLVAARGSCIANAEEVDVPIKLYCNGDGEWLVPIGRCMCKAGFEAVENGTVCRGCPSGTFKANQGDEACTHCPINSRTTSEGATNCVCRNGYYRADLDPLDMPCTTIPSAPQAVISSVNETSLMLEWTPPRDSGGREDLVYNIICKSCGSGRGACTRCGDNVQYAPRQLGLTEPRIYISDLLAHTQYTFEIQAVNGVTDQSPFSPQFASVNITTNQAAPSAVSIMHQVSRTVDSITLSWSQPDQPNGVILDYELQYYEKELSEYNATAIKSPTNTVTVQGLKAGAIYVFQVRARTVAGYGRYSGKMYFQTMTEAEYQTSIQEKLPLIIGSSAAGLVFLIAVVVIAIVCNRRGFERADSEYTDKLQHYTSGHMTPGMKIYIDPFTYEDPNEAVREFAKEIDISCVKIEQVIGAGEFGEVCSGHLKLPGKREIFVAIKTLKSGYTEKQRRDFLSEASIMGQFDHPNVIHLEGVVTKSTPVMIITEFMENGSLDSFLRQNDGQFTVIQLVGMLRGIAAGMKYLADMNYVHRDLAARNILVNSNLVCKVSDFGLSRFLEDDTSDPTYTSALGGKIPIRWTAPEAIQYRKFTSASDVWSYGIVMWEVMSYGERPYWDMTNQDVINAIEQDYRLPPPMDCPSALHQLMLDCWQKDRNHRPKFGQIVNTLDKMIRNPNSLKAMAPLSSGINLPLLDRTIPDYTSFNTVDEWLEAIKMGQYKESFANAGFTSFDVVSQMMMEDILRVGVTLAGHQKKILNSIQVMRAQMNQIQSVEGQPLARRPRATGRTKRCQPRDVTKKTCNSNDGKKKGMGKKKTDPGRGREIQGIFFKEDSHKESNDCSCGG
# phosphorylation enrichment binned as low end = under 0.5, middle = from 0.5 up to 0.6, high end = 0.6 and over

> print(dat)
                    sequence.record           target.system  qualitative.label
 1        TRSFDYMEGGD [FGF7_Y58_YF]  EPHB2 (UniProt P29323)             middle
 2         VLPIDYFFPPQ [AR_Y552_YF]  EPHB2 (UniProt P29323)           high end
 3         PESIMYRKFTT [NTRK3_Y744]  EPHB2 (UniProt P29323)             middle
 4        RKETFYTLSCR [GUCY2C_Y681]  EPHB2 (UniProt P29323)           high end
 5  LAGRFYALRSM [CKB_Y174_K177R_YF]  EPHB2 (UniProt P29323)           high end
 6   KHMADYPDCKY [SOX11_Y113_Y116C]  EPHB2 (UniProt P29323)           high end
 7         LTNDRYLATLT [IL6ST_Y396]  EPHB2 (UniProt P29323)           high end
 8       MNKNAYHNVTA [ST3GAL6_Y306]  EPHB2 (UniProt P29323)            low end
 9        AGRSGYDNREI [BCL2_Y9_T7S]  EPHB2 (UniProt P29323)            low end
10        PGRRFYVVACD [RNASE3_Y134]  EPHB2 (UniProt P29323)           high end
11     RSDEDYLCREE [POR_Y573_Y575C]  EPHB2 (UniProt P29323)           high end
12    RASSVFTRSTG [CCR5_Y339_Y339F]  EPHB2 (UniProt P29323)            low end
13    PLDGEYFTHQI [TP53_Y327_L330H]  EPHB2 (UniProt P29323)           high end
14        NLSVRYDSSLK [ABCC8_Y1353]  EPHB2 (UniProt P29323)            low end
15   GGYTWYCDGKK [PROS1_Y266_C265W]  EPHB2 (UniProt P29323)             middle
16    MIRSTYALGGL [CPS1_Y590_A589T]  EPHB2 (UniProt P29323)             middle
17     KVGPGYLGSRG [RET_Y826_G830R]  EPHB2 (UniProt P29323)            low end
18        FTGNTYRVGDT [FN1_Y106_YF]  EPHB2 (UniProt P29323)            low end
19   NFATLHLKIYH [PDE6B_Y219_Y219H]  EPHB2 (UniProt P29323)             middle
20       YGLPRYRWLTH [TSPAN12_Y143]  EPHB2 (UniProt P29323)           high end
21     ATPKGYERDAS [OTC_Y223_P225R]  EPHB2 (UniProt P29323)             middle
22     ISGLKYPVSQQ [BTK_Y375_R372G]  EPHB2 (UniProt P29323)             middle
23        FDCKWYIPLTD [BCR_Y756_YF]  EPHB2 (UniProt P29323)           high end
24        FRASFYRRGDR [LTK_Y677_YF]  EPHB2 (UniProt P29323)             middle
25           RLRKYYLGKYL [KLB_Y906]  EPHB2 (UniProt P29323)           high end
26    RGKDNYETSQL [SPP1_Y225_S224N]  EPHB2 (UniProt P29323)           high end
27    DGKYSYLKVGH [GRM3_Y480_G475D]  EPHB2 (UniProt P29323)            low end
28       MSLRSYGSWEG [APC_Y96_R99W]  EPHB2 (UniProt P29323)            low end
29      AHAGEYGAVAL [HBA1_Y25_E28V]  EPHB2 (UniProt P29323)             middle
30          DSEIRYLSADS [TTF1_Y476]  EPHB2 (UniProt P29323)             middle
31  IKELTYQMEED [MYH7_Y1852_T1854M]  EPHB2 (UniProt P29323)           high end
32         YSTSPYLLEAA [BRIP1_Y921]  EPHB2 (UniProt P29323)             middle
33      ARQEEYSAMRD [KRAS_Y64_G60R]  EPHB2 (UniProt P29323)             middle
34  KVQVSYKGDTK [HSPA1A_Y107_E110D]  EPHB2 (UniProt P29323)            low end
35           KYLENYYDLKK [MMP3_Y41]  EPHB2 (UniProt P29323)           high end
36         RSRSSYTHGLN [MYCT1_Y116]  EPHB2 (UniProt P29323)           high end
